Sourced from ChEMBL document CHEMBL5724709

tested on: U2OS; assay: Incucyte cell viability with U2OS; type: toxicity, cell-based; conditions: human, 24 h, 10 µM, compound concentration 10 uM, replicate number 2; also: unitless GR value; below 1 slowed growth and below 0 cell loss
Peptide text beside a SMILES is read from it. * marks the point of attachment. Cbz = O=C(OCc1ccccc1)*; CH2Cl = ClC*
recorded_metric: Growth Rate

Lookup: Given the entry `Cc1ccc(F)c2cc(C(=O)N[C@@H]3CCC[C@H](N4CC[C@H](N(C)S(C)(=O)=O)C4)C3)[nH]c12` , report its measured Growth Rate.
Found: 0.67

Lookup: `COc1cccc(OC)c1S(=O)(=O)Nc1noc2cc(Cn3cccn3)cc(OC)c12` ?
Found: 1

Lookup: `COc1cc(Nc2ncc(F)c(Nc3ccc4c(n3)NC(=O)C(C)(C)O4)n2)cc(OC)c1OC` ?
Found: -0.21

Lookup: `FC(F)(F)Oc1ccc(Oc2ccnc(N3CCC(NC(=S)Nc4cccnc4)CC3)c2Cl)c(Cl)c1` ?
Found: 0.56

Lookup: COc1cc(Nc2ncc(F)c(Nc3ccc4c(n3)N(COP(=O)([O-])[O-])C(=O)C(C)(C)O4)n2)cc(OC)c1OC.O.O.O.O.O.O.[Na+].[Na+] [FOSTAMATINIB DISODIUM] ?
Found: -0.05

Lookup: COc1cc(Oc2ccnc3cc(OC)c(OC)cc23)ccc1NC(=O)NC(C)c1nccs1 (stereo unspecified) ?
Found: 0.82

Lookup: `CCCOc1ccc(CCc2nc3cc(-c4c(C)noc4C)ccc3n2CCN2CCOCC2)cc1` ?
Found: 0.8

Lookup: `CC(C)(C)OC(=O)Nc1ccc(-c2cc(C(=O)NCCCCCCC(=O)NO)no2)cc1` ?
Found: 0.63

Lookup: `O=C(Nc1ccc2[nH]nc(-c3ccncc3)c2c1)[C@@H]1CCN(CC(=O)N2CCN(c3ccc(-c4ncccn4)cc3)CC2)C1` ?
Found: 1

Lookup: `COc1cc(C)[nH]c(=O)c1CNC(=O)c1c(C)n([C@H](C)C2CCN(CC(F)(F)F)CC2)c2ccccc12` ?
Found: 0.83

Lookup: `COc1cc2c(Nc3ccc(Br)cc3F)ncnc2cc1OCC1CCN(C)CC1` ?
Found: 0.01

Lookup: CC(=O)N[C@@H](CC(C)C)C(=O)N[C@@H](CCC(=O)O)C(=O)N[C@@H](Cc1cnc[nH]1)C(=O)N[C@@H](CC(=O)O)C(=O)CCl.O=C(O)C(F)(F)F (Ac-LEHD-CH2Cl) ?
Found: 1

Lookup: `Cn1c(=O)c2c(nc(N3CCNCC3)n2Cc2nnc(-c3ccc(Cl)c(Cl)c3)o2)n(C)c1=O` ?
Found: 0.88

Lookup: `CC(C)[C@@H]1C(=O)N(S(C)(=O)=O)[C@@H]2CCN(C(=O)/C=C/CN3CCCCC3)[C@H]21.Cl` ?
Found: 0.76

Lookup: `CSc1cccc(Nc2ncc3cc(-c4c(Cl)cccc4Cl)c(=O)n(C)c3n2)c1` ?
Found: -0.15

Lookup: O=CC1CCCN1C(=O)C1CCCN1C(=O)OCc1ccccc1 (stereo not drawn) (Cbz-Pro-Pro-aldehyde; configuration not given here) ?
Found: 0.84

Lookup: `O=c1[nH]ccc2cc(F)c(NS(=O)(=O)c3ccc(N4CC[C@@H](O)C4)s3)cc12` ?
Found: 0.94

Lookup: `CCCCCCCCCCCCCCCCNNC(=O)c1cccs1` ?
Found: 1

Lookup: CC(=O)N[C@H](C(=O)N[C@@H](CC(=O)O)C(=O)N[C@H](C(=O)N[C@@H](C)C(=O)N[C@H](C=O)CC(=O)O)C(C)C)C(C)C (Ac-VDVAD-aldehyde) ?
Found: 0.76

Lookup: CC(=O)N[C@@H](CC(C)C)C(=O)N[C@@H](CCC(=O)O)C(=O)N[C@H](C(=O)N[C@H](C=O)CC(=O)O)C(C)C (Ac-LEVD-aldehyde) ?
Found: 1

Lookup: `O=C(CCCCCCNC(=O)c1cnc(N(c2ccccc2)c2ccccc2Cl)nc1)NO` ?
Found: 0.29

Lookup: `Nc1ncnc2c1ncn2[C@@H]1O[C@H](C[C@@H](N)CC[C@H](N)C(=O)O)[C@@H](O)[C@H]1O` ?
Found: 1

Lookup: `CNc1ncc2cc(-c3cc(NC(=O)NCCC(C)(C)C)c(F)cc3C)c(C)nc2n1` ?
Found: 0.07

Lookup: `COc1cc2c(NC3CCN(C)CC3)nc(N3CCCN(C)CC3)nc2cc1OCCCN(C)C` ?
Found: 1

Lookup: `O=C(NCCCn1ccnc1)c1cc2nc(-c3ccccc3)cc(-c3ccccc3)n2n1` ?
Found: 0.75

Lookup: `N=C(N)N/N=C/c1cccc(Cl)c1Cl` ?
Found: 0.53

Lookup: `CC(=O)Nc1ccc(-c2cc(-c3ccccc3)nc3cc(C(=O)NCCCn4ccnc4)nn23)cc1` ?
Found: 0.62

Lookup: `COc1cc2c(NC3CCN(C)CC3)cc(-c3ccc(C)o3)nc2cc1OCCCN1CCCC1` ?
Found: -0.55

Lookup: `CCCOc1cccc(Oc2cc3c(cc2NS(=O)(=O)c2cccc(C(=O)NCCOCCOCCOCC(=O)N[C@H](C(=O)N4C[C@H](O)C[C@H]4C(=O)NCc4ccc(-c5scnc5C)cc4)C(C)(C)C)c2)n(C)c(=O)n3C)c1` ?
Found: 0.63

Lookup: `CC(=O)N1CCC(Nc2cc(C(=O)NC[C@H](O)CN3CCc4ccccc4C3)ncn2)CC1` ?
Found: 1

Lookup: `Cc1nn(CC(F)(F)F)cc1Nc1ncc(Br)c(NCc2ccc(S(N)(=O)=O)cc2)n1` ?
Found: 0.83
